# experiment-notes: ATG_PXRE_CIS: Attagene CIS-FACTORIAL HepG2 Assay for human Pregnane X Receptor Element (PXRE) (AID 2282957)
# experimental-conditions: HepG2 Attagene CIS-FACTORIAL PXRE reporter, mRNA; actives raise or lower the signal
# Method: ATG_CIS is a cell-based, multiplexed-readout assay that uses HepG2, a human liver cell line, with measurements taken at 24 hours after chemical dosing in a 24-well plate.ATG_PXRE_CIS is one of 52 assay component(s) measured or calculated from the ATG_CIS assay. […] This assay endpoint, ATG_PXRE_CIS, was analyzed with bidirectional fitting relative to DMSO as the negative control and baseline of activity. […]
Calls of active or inactive are those of the source. Rule for the calls: active = hit-call score of the fitted dose curve at least 0.9, where 1 is the maximum; inactive = score below 0.9.
Your answer must be one of the following: class 1 = active, class 0 = inactive

Here's what some known entries look like.
1) CSC(=O)c1cccc2nnsc12
class 1
2) CCNc1nc(N)nc(Cl)n1
class 0
3) CCOC(=O)C(C)Oc1ccc(Oc2cnc3cc(Cl)ccc3n2)cc1 (configuration not stated)
class 1
4) CCCCC(CC)CN1C(=O)C2C3C=CC(C3)C2C1=O (configuration not stated)
class 1
5) CCOC(=O)NCCOc1ccc(Oc2ccccc2)cc1
class 1
6) CCCOC(=O)NCCCN(C)C
class 0

Next up:
Challenge: Can you look up the reported call for C#CCOC(=O)[C@@H](C)Oc1ccc(Oc2ncc(Cl)cc2F)cc1 for me?
Response given: class 1

###

# Read-out: Monokine induced gamma interferon (MIG), CXCL9 (gene 4283)
# experiment-notes: BSK_BE3C_MIG: BioMAP Diversity Plus: BE3C Assay for Monokine induced gamma interferon (MIG) Biomarker Activity (AID 2283035);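 note: MIG protein measured by ELISA in BE3C cultures after 24 h of dosing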
# experimental-conditions: primary human bronchial epithelial cells; actives raise or lower the signal
Calls of active or inactive are those of the source. How the source made its calls: active means hit-call score of the fitted dose curve at least 0.9, where 1 is the maximum; inactive means score below 0.9.
outcome-measure: outcome

Previously resolved entries follow.
1) C[C@]12CC[C@@H]3c4ccc(O)cc4C[C@@H](CCCCCCCCCS(=O)CCCC(F)(F)C(F)(F)F)[C@H]3[C@@H]1CC[C@@H]2O (stereo partly specified)
inactive
2) CSC(=O)c1cccc2nnsc12
inactive
3) c1ccc2[nH]c(-c3cscn3)nc2c1
inactive
4) CCCOC(=O)NCCCN(C)C
inactive
5) CCOC(=O)C(C)Oc1ccc(Oc2nc3ccc(Cl)cc3o2)cc1 (stereo unspecified)
inactive

So for C#CCOC(=O)[C@@H](C)Oc1ccc(Oc2ncc(Cl)cc2F)cc1 , the logged outcome turned out to be inactive

###

# measured-on: Retinoic acid receptor alpha (Homo sapiens)
# experiment-notes: ATG_DR5_RAR_CIS: Attagene CIS-FACTORIAL HepG2 Assay for human Retinoic Acid Receptor Alpha (RARE), DR5 submotif (AID 2282934)
# experimental-conditions: HepG2 Attagene cis-factorial RARE DR5 reporter, mRNA; actives raise or lower the signal
Active and inactive are the calls of the source. How the source made its calls: active means hit-call score of the fitted dose curve at least 0.9, where 1 is the maximum; inactive means score below 0.9.
Please state which outcome applies, choosing from 1 (active), 0 (inactive)

Reference set (3 entries):
1. O=C(O)C1(C(=O)Nc2ccc(Cl)cc2Cl)CC1
0
2. CCN(Cc1c(F)cccc1Cl)c1c([N+](=O)[O-])cc(C(F)(F)F)cc1[N+](=O)[O-]
1
3. COC(=O)c1ccc(CNS(C)(=O)=O)cc1S(=O)(=O)NC(=O)Nc1nc(OC)cc(OC)n1
0

Turning to the following compound.
Challenge: GET /call?item= COC(=O)c1c(Cl)nn(C)c1S(=O)(=O)NC(=O)Nc1nc(OC)cc(OC)n1 returns the recorded outcome of this test.
Response given: 0
